System: COLO 205 colon
assay-info: NCI-60 one-dose screen, 48 h
conditions: 10 µM unless noted
Experimental: Cells are grown in 96 well plates and exposed to the test compound for 48 hours. Compounds are tested at a single concentration, which is 10^-5 M for most compounds. The reported endpoint is percent growth (GI% or GIPRCNT), where numbers from 0 - 100% represent growth inhibition, and numbers from -100% - 0 represent cell death. For example, a value of 40 represents 60% growth inhibition. A value of 0 means no net growth occurred over the course of the experiment. […]
The panel holds about 83,000 compounds, 20% with a hit somewhere; the sample as a whole holds those more often. Active and inactive are the calls of the source. The calls were made as follows: active = growth percent below 10; inactive = the rest.
// classify into active, inactive

GET /call?item= C[C@H]1[C@H](C)CC[C@]2(C(=O)N3CCN(C)CC3)CC[C@]3(C)C(=CC[C@@H]4[C@@]5(C)C/C(=C/c6ccco6)C(=O)C(C)(C)[C@@H]5CC[C@]43C)[C@H]12 returns the recorded outcome of this test.
inactive

Would you mind doing COc1cc2c(c(OC)c1OC)-c1ccc(NNC(N)=S)c(=O)cc1[C@@H](NC(C)=O)CC2 as well?
active

Field entry: COc1c(B(O)O)cccc1-c1nc2ccc3[nH]ncc3c2c2c1CCC2
inactive
